# Test Target: T1, MHC class I molecule B*0702 (biotin (bound to streptavidin-coated plate))
# T1 construct: also called B7; HLA-B7
# Measurement Description: iTopia iScore
Measured Attribute: iScore

- LSHNPLADL [5T4 9-mer peptide 75 LSHNPLADL]: 0
- LVELILNHI [5T4 9-mer peptide 88 LVELILNHI]: 0
- AGRALQGLR [5T4 9-mer peptide 103 AGRALQGLR]: 0
- HFLYLPRDV [5T4 9-mer peptide 111 HFLYLPRDV]: 0
- RGPAAGDGR [5T4 9-mer peptide 4 RGPAAGDGR]: 0
- LQGLRRLEL [5T4 9-mer peptide 105 LQGLRRLEL]: 0.119
- LPRDVLAQL [5T4 9-mer peptide 113 LPRDVLAQL]: 0.305
- RRPPLAELA [5T4 9-mer peptide 57 RRPPLAELA]: 0
- GAFARRPPL [5T4 9-mer peptide 55 GAFARRPPL]: 0.359
- TDLPAYVRN [5T4 9-mer peptide 44 TDLPAYVRN]: 0
